- PROTOCOL NOTES: growth inhibition of ugtP-null S. aureus, primary screen, RN4220 ugtP deletion, OD600 (AID 1259309);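 further: plate controls were untreated wells for no effect and antibiotic for full effect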
- CONDITION SUMMARY: 16 h, hits give high values
Hit rate of the full screen: of about 330,000 compounds, about 1,800 (0.55%) were called active. The sample as a whole holds a higher share of actives than the screen did.
In this section, each of the molecules is paired with its reported growth inhibition.
// return numeric value only (unit: %, not printed)

Below, each entry is followed by its recorded growth inhibition result.
molecule=Cc1ccc(OCC(=O)NNC(=S)NCc2ccccc2)cc1 assay_endpoint="growth inhibition" value_observed=-11.7
molecule=Cc1ccc(OCC(=O)NCCCNC(=O)c2ccco2)cc1C assay_endpoint="growth inhibition" value_observed=-2.8
molecule=Cc1ccccc1C(=O)ON=C(N)c1ccncc1 assay_endpoint="growth inhibition" value_observed=6.35
molecule=NC(=O)C(=Cc1ccccc1)NC(=O)C=Cc1ccccc1 assay_endpoint="growth inhibition" value_observed=-1.58
molecule="CC(=O)CC1c2cc(C(F)(F)F)ccc2S(=O)(=O)N1C1CCCC1 (configuration not stated)" assay_endpoint="growth inhibition" value_observed=-1.55
molecule=CCCCCCCCCCCCn1ccc(=N)cc1 assay_endpoint="growth inhibition" value_observed=101
molecule=CCCc1ccc(OCC(=O)NNC(=S)NC(=O)c2ccco2)cc1 assay_endpoint="growth inhibition" value_observed=96
molecule=O=C(Nc1ccc2ccccc2c1)/C(=C/c1cccc(Br)c1)NC(=O)c1ccco1 assay_endpoint="growth inhibition" value_observed=-9.2

# query: growth inhibition of entry CC1CCCC(C)N1N=Cc1ccc([N+](=O)[O-])cc1 (configuration not stated) 18

Item `CC(C)(C)c1cc(C(=O)NN=Cc2ccccn2)n[nH]1` has what recorded growth inhibition? 4.75

Which growth inhibition reading was recorded for the molecule `CCCCCN1CC(O)=C(c2ccccc2)C1=N` ? 2.59

Look up growth inhibition: CCOC1OC(C(N)=O)=CC(c2csc3ccccc23)C1CCCO (configuration not stated) -0.922

Recorded values, source PubChem BioAssay AID1259309.
